test system: HCT116/VM46 (a vinblastine-resistant strain of HCT116) cells; experiment: Cell growth inhibition assay, HCT116/VM46; type: cell-based, human; conditions: 72 hours incubation, phosphatase assay; Pgp-overexpressing resistant line
pIC50 values by entry
Keep it numeric: pIC50 is minus log10 of the concentration in mol/L.

[
  {
    "STRUCTURE NOTATION": "CC[C@]1(NC(=O)N2Cc3ccc(NC(=O)c4cncnc4)cc3C2)C[C@H]2CN(CCc3c([nH]c4ccccc34)[C@@](C(=O)OC)(c3cc4c(cc3OC)N(C)[C@H]3[C@@](O)(C(=O)OC)[C@H](OC(C)=O)[C@]5(CC)C=CCN6CC[C@]43[C@@H]65)C2)C1",
    "pIC50": 8.06
  }
]

Continue with the molecule presented below.
Lookup: Give reported pIC50 for CC[C@]1(NC(=O)N2Cc3ccc(N(C)C)cc3C2)C[C@H]2CN(CCc3c([nH]c4ccccc34)[C@@](C(=O)OC)(c3cc4c(cc3OC)N(C)[C@H]3[C@@](O)(C(=O)OC)[C@H](OC(C)=O)[C@]5(CC)C=CCN6CC[C@]43[C@@H]65)C2)C1 (HCT116/VM46 (a vinblastine-resistant strain of HCT116) cells)
Found: 8.41

---

test system: L1210 (mouse lymphocytic leukemia) cells; experiment: Cell growth inhibition assay, L1210; format: cell-based; conditions: 72 hours incubation, phosphatase assay
MEASUREMENT TYPE: pIC50
Keep it numeric: pIC50 is minus log10 of the concentration in mol/L.

Please review the following examples before continuing.
[
  {
    "MOLECULE": "CC[C@]1(NC(=O)N2Cc3ccc(NC(=O)C=C(C)C)cc3C2)C[C@H]2CN(CCc3c([nH]c4ccccc34)[C@@](C(=O)OC)(c3cc4c(cc3OC)N(C)[C@H]3[C@@](O)(C(=O)OC)[C@H](OC(C)=O)[C@]5(CC)C=CCN6CC[C@]43[C@@H]65)C2)C1 [Compound 48]",
    "pIC50": 9.37
  },
  {
    "MOLECULE": "CC[C@]1(NC(=O)N2Cc3ccc(NC(=O)c4cccnc4)cc3C2)C[C@H]2CN(CCc3c([nH]c4ccccc34)[C@@](C(=O)OC)(c3cc4c(cc3OC)N(C)[C@H]3[C@@](O)(C(=O)OC)[C@H](OC(C)=O)[C@]5(CC)C=CCN6CC[C@]43[C@@H]65)C2)C1 [Compound 56]",
    "pIC50": 9.32
  },
  {
    "MOLECULE": "CCCNc1ccc2c(c1)CN(C(=O)N[C@@]1(CC)C[C@H]3CN(CCc4c([nH]c5ccccc45)[C@@](C(=O)OC)(c4cc5c(cc4OC)N(C)[C@H]4[C@@](O)(C(=O)OC)[C@H](OC(C)=O)[C@]6(CC)C=CCN7CC[C@]54[C@@H]76)C3)C1)C2 [Compound 39]",
    "pIC50": 9.40
  }
]

Continue with the molecule presented below.
Lookup: Give reported pIC50 for CC[C@]1(NC(=O)N2CCc3ccccc3CC2)C[C@H]2CN(CCc3c([nH]c4ccccc34)[C@@](C(=O)OC)(c3cc4c(cc3OC)N(C)[C@H]3[C@@](O)(C(=O)OC)[C@H](OC(C)=O)[C@]5(CC)C=CCN6CC[C@]43[C@@H]65)C2)C1 [Compound 27] (L1210 (mouse lymphocytic leukemia) cells)
Found: 9.23

---

IC50 values by entry
test system: L1210 (mouse lymphocytic leukemia) cells; assay: Cell growth inhibition assay, L1210; assay type: cell-based; details: 72 hours incubation, phosphatase assay
Note: unit nM is implicit; provide only the numeric part.

[
  {
    "COMPOUND": "CC[C@]1(NC(=O)N2CCC(C#N)C2)C[C@H]2CN(CCc3c([nH]c4ccccc34)[C@@](C(=O)OC)(c3cc4c(cc3OC)N(C)[C@H]3[C@@](O)(C(=O)OC)[C@H](OC(C)=O)[C@]5(CC)C=CCN6CC[C@]43[C@@H]65)C2)C1 (single isomer, unassigned) [Compound 21]",
    "SCALE UNIT": "nM",
    "IC50": 5.1
  }
]

Continue with the compound presented below.
Lookup: Let me know recorded IC50 for CC[C@]1(NC(=O)N2Cc3ccc(NC(=O)c4ccccn4)cc3C2)C[C@H]2CN(CCc3c([nH]c4ccccc34)[C@@](C(=O)OC)(c3cc4c(cc3OC)N(C)[C@H]3[C@@](O)(C(=O)OC)[C@H](OC(C)=O)[C@]5(CC)C=CCN6CC[C@]43[C@@H]65)C2)C1 , thanks.
Found: 0.37

---

IC50 values by entry
tested on: HCT116/VM46 (a vinblastine-resistant strain of HCT116) cells; assay: Cell growth inhibition assay, HCT116/VM46; assay type: cell-based, human; settings: 72 hours incubation, phosphatase assay; Pgp-overexpressing resistant line
Note: unit nM is implicit; provide only the numeric part.

Please review the following examples before continuing.
[
  {
    "COMPOUND": "CC[C@]1(NC(=O)N2Cc3ccc(Br)cc3C2)C[C@H]2CN(CCc3c([nH]c4ccccc34)[C@@](C(=O)OC)(c3cc4c(cc3OC)N(C)[C@H]3[C@@](O)(C(=O)OC)[C@H](OC(C)=O)[C@]5(CC)C=CCN6CC[C@]43[C@@H]65)C2)C1 [Compound 33]",
    "SYSTEM": "HCT116/VM46 (a vinblastine-resistant strain of HCT116) cells",
    "SCALE UNIT": "nM",
    "VALUE REPORTED": 6.4
  },
  {
    "COMPOUND": "CC[C@]1(NC(=O)N2Cc3ccc(NC(=O)c4ccccn4)cc3C2)C[C@H]2CN(CCc3c([nH]c4ccccc34)[C@@](C(=O)OC)(c3cc4c(cc3OC)N(C)[C@H]3[C@@](O)(C(=O)OC)[C@H](OC(C)=O)[C@]5(CC)C=CCN6CC[C@]43[C@@H]65)C2)C1 [Compound 55]",
    "SYSTEM": "HCT116/VM46 (a vinblastine-resistant strain of HCT116) cells",
    "SCALE UNIT": "nM",
    "VALUE REPORTED": 3.6
  },
  {
    "COMPOUND": "CC[C@]1(NC(=O)N2Cc3ccc(F)cc3C2)C[C@H]2CN(CCc3c([nH]c4ccccc34)[C@@](C(=O)OC)(c3cc4c(cc3OC)N(C)[C@H]3[C@@](O)(C(=O)OC)[C@H](OC(C)=O)[C@]5(CC)C=CCN6CC[C@]43[C@@H]65)C2)C1 [Compound 31]",
    "SYSTEM": "HCT116/VM46 (a vinblastine-resistant strain of HCT116) cells",
    "SCALE UNIT": "nM",
    "VALUE REPORTED": 5.2
  }
]

Lookup: Let me know recorded IC50 for CC[C@]1(NC(=O)N2Cc3ccc(NC(=O)c4ccc(C(C)C)cc4)cc3C2)C[C@H]2CN(CCc3c([nH]c4ccccc34)[C@@](C(=O)OC)(c3cc4c(cc3OC)N(C)[C@H]3[C@@](O)(C(=O)OC)[C@H](OC(C)=O)[C@]5(CC)C=CCN6CC[C@]43[C@@H]65)C2)C1 [Compound 53] , thanks.
Found: 60

Lookup: Let me know recorded IC50 for CC[C@]1(NC(=O)N2CC=CC2)C[C@H]2CN(CCc3c([nH]c4ccccc34)[C@@](C(=O)OC)(c3cc4c(cc3OC)N(C)[C@H]3[C@@](O)(C(=O)OC)[C@H](OC(C)=O)[C@]5(CC)C=CCN6CC[C@]43[C@@H]65)C2)C1 [Compound 22] , thanks.
Found: 5.7

---

system: HCT116/VM46 (a vinblastine-resistant strain of HCT116) cells; experiment: Cell growth inhibition assay, HCT116/VM46; format: cell-based, human; details: 72 hours incubation, phosphatase assay; Pgp-overexpressing resistant line
IC50 values by entry
Note: unit nM is implicit; provide only the numeric part.

Please review the following examples before continuing.
[
  {
    "COMPOUND": "CC[C@]1(NC(=O)N2Cc3ccc(NC(=O)c4cnccn4)cc3C2)C[C@H]2CN(CCc3c([nH]c4ccccc34)[C@@](C(=O)OC)(c3cc4c(cc3OC)N(C)[C@H]3[C@@](O)(C(=O)OC)[C@H](OC(C)=O)[C@]5(CC)C=CCN6CC[C@]43[C@@H]65)C2)C1 [Compound 60]",
    "VALUE REPORTED": 0.83
  },
  {
    "COMPOUND": "CCCNc1ccc2c(c1)CN(C(=O)N[C@@]1(CC)C[C@H]3CN(CCc4c([nH]c5ccccc45)[C@@](C(=O)OC)(c4cc5c(cc4OC)N(C)[C@H]4[C@@](O)(C(=O)OC)[C@H](OC(C)=O)[C@]6(CC)C=CCN7CC[C@]54[C@@H]76)C3)C1)C2 [Compound 39]",
    "VALUE REPORTED": 4.6
  },
  {
    "COMPOUND": "CC[C@]1(NC(=O)N2CCC(N(C)C)C2)C[C@H]2CN(CCc3c([nH]c4ccccc34)[C@@](C(=O)OC)(c3cc4c(cc3OC)N(C)[C@H]3[C@@](O)(C(=O)OC)[C@H](OC(C)=O)[C@]5(CC)C=CCN6CC[C@]43[C@@H]65)C2)C1 (single isomer, unassigned) [Compound 10]",
    "VALUE REPORTED": 500
  }
]

Continue with the compound presented below.
Lookup: Let me know recorded IC50 for CC[C@]1(NC(=O)N2Cc3ccc(NC(=O)c4ccc(-c5ccccc5)cc4)cc3C2)C[C@H]2CN(CCc3c([nH]c4ccccc34)[C@@](C(=O)OC)(c3cc4c(cc3OC)N(C)[C@H]3[C@@](O)(C(=O)OC)[C@H](OC(C)=O)[C@]5(CC)C=CCN6CC[C@]43[C@@H]65)C2)C1 [Compound 51] , thanks.
Found: 75
